Biological target: hROMK (hKir1.1) (Homo sapiens (Human), UniProt P48048)
Sequence (P48048 whole entry): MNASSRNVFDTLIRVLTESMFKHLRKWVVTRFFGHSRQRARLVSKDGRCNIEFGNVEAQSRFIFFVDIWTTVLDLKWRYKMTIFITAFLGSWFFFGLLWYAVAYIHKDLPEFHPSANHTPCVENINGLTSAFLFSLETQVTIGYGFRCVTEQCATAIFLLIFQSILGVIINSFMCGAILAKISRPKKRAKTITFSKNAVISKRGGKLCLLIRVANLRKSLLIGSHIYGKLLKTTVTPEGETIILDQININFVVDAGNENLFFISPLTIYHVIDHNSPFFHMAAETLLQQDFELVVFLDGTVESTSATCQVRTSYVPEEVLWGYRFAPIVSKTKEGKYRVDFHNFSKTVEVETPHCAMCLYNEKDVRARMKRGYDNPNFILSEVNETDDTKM
Experiment: Thallium Flux Assay
Format: cell-based
pIC50: −log10 of the molar value.

- compound: "Cc1nc(-n2cnnn2)ccc1CC(=O)N1CCN2C[C@H](c3ccc(F)c(C#N)c3F)OC[C@@H]2C1 [Example 89]"
  pIC50: 7.15

----------
Molecular target: Kir1.1 (ROMK1) (Homo sapiens (Human), UniProt P48048)
Sequence (P48048 whole entry): as above
Assay: Electrophysiology Assay (IonWorks Quattro whole cell voltage clamp)
measurementLabel: IC50 (nM)

- querySmiles: "O=C1OCCc2cc([C@@H]3CN4CCN(C(=O)Cc5ccc(-n6cnnn6)nc5)C[C@H]4CO3)ccc21"
  valueObserved: 60
